Biological target: Gal6S(b1-4)GlcNAc6S
Experiment: glycan array binding signal (z-score within array); higher = stronger binding
Conditions: glycan notation: IUPAC condensed, linker removed
This is one part of a sample in which the strongest signals are shown more often than they occur.
In this section we review reported glycan array binding signal (z-score) values for a set of binders.
API note: the answer field is a bare number with no unit suffix.

>  <binder>
CLECb-Precomplexed (Mus musculus), P43025 (protein) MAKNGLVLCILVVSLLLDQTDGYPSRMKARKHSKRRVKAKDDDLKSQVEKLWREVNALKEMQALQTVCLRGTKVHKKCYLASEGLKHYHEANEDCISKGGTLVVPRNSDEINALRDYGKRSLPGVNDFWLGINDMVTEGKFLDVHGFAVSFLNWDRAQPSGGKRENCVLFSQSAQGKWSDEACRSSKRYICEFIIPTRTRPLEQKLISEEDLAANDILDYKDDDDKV

>  <glycan array binding signal (z-score)>
0.049

$$$$

Specify measured glycan array binding signal (z-score) for Mcg Light Chain Dimer (Homo sapiens), Q6PIK1 (protein) MAGFPLLLTLLTHCAGSWGQSLLTQPPSVSGTPGQRVTISCSGSSSNIGINYVYWYQQIPGTAPKLLISTNDQRPSGVPDRFSGSKSGTSASLAIGGLRSEDEAHYYCAAWDDSMSGPGYAFGTGTKVTVLRQPKANPTVTLFPPSSEELQANKATLVCLISDFYPGAVTVAWKADGSPVKAGVETTKPSKQSNNKYAASSYLSLTPEQWKSHRSYSCQVTHEGSTVEKTVAPTECS .
0.505

Specify measured glycan array binding signal (z-score) for CrataBL (Crataeva tapia), C0HJA4 (protein) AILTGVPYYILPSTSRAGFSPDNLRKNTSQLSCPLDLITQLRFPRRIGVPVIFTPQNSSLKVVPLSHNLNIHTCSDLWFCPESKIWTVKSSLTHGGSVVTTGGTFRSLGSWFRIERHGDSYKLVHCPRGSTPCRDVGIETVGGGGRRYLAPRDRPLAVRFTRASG .
5.29

Specify measured glycan array binding signal (z-score) for EULS2 M2 (Oryza sativa) (protein) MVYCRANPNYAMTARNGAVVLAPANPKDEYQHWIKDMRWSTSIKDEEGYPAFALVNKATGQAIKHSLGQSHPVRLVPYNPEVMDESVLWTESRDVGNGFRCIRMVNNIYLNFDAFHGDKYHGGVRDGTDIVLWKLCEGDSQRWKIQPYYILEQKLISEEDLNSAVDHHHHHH .
2.72
